measurementTarget: Polyunsaturated fatty acid 5-lipoxygenase (Homo sapiens) (UniProt P09917)
assayProcedure: Inhibition of human recombinant 5-lipoxygenase assessed as remaining activity at 10 uM
readoutName: Activity

Would you please look over these solved cases?
| compound | result |
| --- | --- |
| O=C(O)C(Sc1nc(Cl)cc(Nc2ccc(F)cc2)n1)c1cccc2ccccc12 (configuration not stated) | 67.3% |
| O=C(O)C(Sc1nc(Cl)cc(Nc2ccc3ncccc3c2)n1)c1cccc2ccccc12 (configuration not stated) | 19% |
| O=C(O)C(Sc1nc(Cl)cc(NCCc2ccccc2)n1)c1cccc2ccccc12 (configuration not stated) | 44.2% |
| CC(C)CNc1cc(Cl)nc(SC(C(=O)O)c2cccc3ccccc23)n1 (configuration not stated) | 54.8% |
| CCCCNc1cc(Cl)nc(SC(C(=O)O)c2cccc3ccccc23)n1 (configuration not stated) | 70.6% |

Consider the additional compound presented here.
The compound O=C(O)C(Sc1nc(Cl)cc(NCCCc2ccccc2)n1)c1cccc2ccccc12 (configuration not stated) showed Activity equal to 68.9%

---

Form field: IC50 (one value per entry).
measurementTarget: Prostaglandin E synthase (Homo sapiens)
Sequence (O14684 whole entry): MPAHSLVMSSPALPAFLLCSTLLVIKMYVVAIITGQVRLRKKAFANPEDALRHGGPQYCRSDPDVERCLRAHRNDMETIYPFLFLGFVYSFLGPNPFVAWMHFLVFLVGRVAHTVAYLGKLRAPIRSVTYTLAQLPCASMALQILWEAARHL
assayProcedure: Inhibition of mPGES-1 expressed in […]-stimulated human A549 cells mitochondrial fraction assessed as conversion of PGH2 to PGE2
Provide the reading as a plain figure in µM.

Would you please look over these solved cases?
| molecule | IC50, µM |
| --- | --- |
| O=C(O)C(Sc1nc(Cl)cc(Nc2ccc(Cl)cc2)n1)c1cccc2ccccc12 (stereo not drawn) | 5.1 |
| O=C(O)C(Sc1nc(Cl)cc(NCc2ccc(-c3ccccc3)cc2)n1)c1cccc2ccccc12 (stereo not drawn) | 0.88 |
| O=C(O)C(Sc1nc(Cl)cc(Nc2ccc3c(c2)Cc2ccccc2-3)n1)c1cccc2ccccc12 (stereo not drawn) | 1.55 |
| O=C(O)C(Sc1nc(Cl)cc(Nc2ccc(-c3ccccc3)cc2)n1)c1cccc2ccccc12 (stereo not drawn) | 0.94 |
| O=C(O)C(Sc1nc(Cl)cc(Nc2ccc(C3CCCCC3)cc2)n1)c1cccc2ccccc12 (stereo not drawn) | 1.45 |
| O=C(O)C(Sc1nc(Cl)cc(Nc2ccc(Oc3ccccc3)cc2)n1)c1cccc2ccccc12 (stereo not drawn) | 0.94 |

The molecule O=C(O)C(Sc1nc(Cl)cc(Nc2ccc(Cc3ccccc3)cc2)n1)c1cccc2ccccc12 (stereo not drawn) showed IC50 equal to 1.5

The molecule O=C(O)C(Sc1nc(Cl)cc(NCCCc2ccccc2)n1)c1cccc2ccccc12 (stereo not drawn) showed IC50 equal to 6.1

The molecule O=C(O)C(Sc1nc(Cl)cc(Nc2cccc(-c3ccccc3)c2)n1)c1cccc2ccccc12 (stereo not drawn) showed IC50 equal to 1.9

The molecule Cc1ccc(Nc2cc(Cl)nc(SC(C(=O)O)c3cccc4ccccc34)n2)cc1C (stereo not drawn) showed IC50 equal to 5.7

The molecule CC(C)(C)c1cc(Nc2cc(Cl)nc(SC(C(=O)O)c3cccc4ccccc34)n2)cc(C(C)(C)C)c1 (stereo not drawn) showed IC50 equal to 0.9

The molecule O=C(O)C(Sc1nc(Cl)cc(Nc2ccc3ccccc3c2)n1)c1cccc2ccccc12 (stereo not drawn) showed IC50 equal to 1.9

The molecule N#Cc1ccc(-c2ccc(Nc3cc(Cl)nc(SC(C(=O)O)c4cccc5ccccc45)n3)cc2)cc1 (stereo not drawn) showed IC50 equal to 1.6

---

measurementTarget: UniProt:P09917
assayProcedure: Inhibition of 5-lipoxygenase in human PMNL
readoutName: pIC50
Entry type: numeric. Quantity: pIC50, the -log10 of concentration in molar units.

| compound | pIC50 |
| --- | --- |
| O=C(O)C(Sc1nc(Cl)cc(Nc2cccc(Cl)c2)n1)c1cccc2ccccc12 (centres undefined) | 6.15 |
| O=C(O)C(Sc1nc(Cl)cc(Nc2ccc(Cl)cc2)n1)c1cccc2ccccc12 (centres undefined) | 6.10 |
| O=C(O)C(Sc1nc(Cl)cc(Nc2ccc(-c3ccccc3)cc2)n1)c1cccc2ccccc12 (centres undefined) | 7.00 |

Consider the additional compound presented here.
The compound O=C(O)C(Sc1nc(Cl)cc(Nc2ccc3ccccc3c2)n1)c1cccc2ccccc12 (centres undefined) showed pIC50 equal to 6.30

---

measurementTarget: UniProtKB P09917
Sequence (P09917 whole entry): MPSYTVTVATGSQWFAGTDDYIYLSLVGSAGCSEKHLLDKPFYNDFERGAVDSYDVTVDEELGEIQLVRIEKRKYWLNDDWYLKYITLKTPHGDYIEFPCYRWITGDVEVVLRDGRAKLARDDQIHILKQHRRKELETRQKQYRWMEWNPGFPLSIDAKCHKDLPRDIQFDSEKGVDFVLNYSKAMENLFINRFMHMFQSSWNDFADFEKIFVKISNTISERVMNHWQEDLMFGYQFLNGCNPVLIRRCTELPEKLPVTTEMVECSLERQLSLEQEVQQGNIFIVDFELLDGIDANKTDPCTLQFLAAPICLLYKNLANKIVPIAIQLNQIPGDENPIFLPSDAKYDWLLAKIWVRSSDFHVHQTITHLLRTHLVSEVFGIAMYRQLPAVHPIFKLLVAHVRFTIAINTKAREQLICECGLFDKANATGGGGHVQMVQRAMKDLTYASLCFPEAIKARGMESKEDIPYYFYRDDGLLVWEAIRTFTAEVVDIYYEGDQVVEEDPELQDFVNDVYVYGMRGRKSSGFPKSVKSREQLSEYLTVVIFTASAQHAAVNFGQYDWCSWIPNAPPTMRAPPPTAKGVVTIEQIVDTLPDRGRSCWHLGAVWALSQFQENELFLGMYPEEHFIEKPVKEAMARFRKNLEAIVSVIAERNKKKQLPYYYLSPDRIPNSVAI
assayProcedure: Inhibition of 5-lipoxygenase in human PMNL
readoutName: pIC50
Entry type: numeric. Quantity: pIC50, the -log10 of concentration in molar units.

Would you please look over these solved cases?
| compound | pIC50 |
| --- | --- |
| O=C(O)C(Sc1nc(Cl)cc(Nc2ccc(Oc3ccccc3)cc2)n1)c1cccc2ccccc12 (centres undefined) | 6.40 |
| O=C(Nc1ccc(Nc2cc(Cl)nc(SC(C(=O)O)c3cccc4ccccc34)n2)cc1)c1ccccc1 (centres undefined) | 6.22 |
| CC(C)(C)c1cc(Nc2cc(Cl)nc(SC(C(=O)O)c3cccc4ccccc34)n2)cc(C(C)(C)C)c1 (centres undefined) | 6.59 |
| O=C(O)C(Sc1nc(Cl)cc(NCc2ccc(-c3ccccc3)cc2)n1)c1cccc2ccccc12 (centres undefined) | 6.15 |
| O=C(O)C(Sc1nc(Cl)cc(Nc2ccc3ncccc3c2)n1)c1cccc2ccccc12 (centres undefined) | 5.36 |

The compound CCCCNc1cc(Cl)nc(SC(C(=O)O)c2cccc3ccccc23)n1 (centres undefined) showed pIC50 equal to 5.62

The compound O=C(O)C(Sc1nc(Cl)cc(Nc2ccc3c(c2)CCC3)n1)c1cccc2ccccc12 (centres undefined) showed pIC50 equal to 6.30

The compound O=C(O)C(Sc1nc(Cl)cc(Nc2ccc(Cc3ccccc3)cc2)n1)c1cccc2ccccc12 (centres undefined) showed pIC50 equal to 6.52

The compound CC(C)c1ccc(Nc2cc(Cl)nc(SC(C(=O)O)c3cccc4ccccc34)n2)cc1 (centres undefined) showed pIC50 equal to 6.59

---

Form field: Activity (one value per entry).
measurementTarget: Prostaglandin E synthase (Homo sapiens) (UniProt O14684)
assayProcedure: Inhibition of mPGES-1 expressed in IL-1beta-stimulated human A549 cells mitochondrial fraction assessed as remaining activity at 10 uM

Would you please look over these solved cases?
| compound | measurementTarget | result |
| --- | --- | --- |
| O=C(O)C(Sc1nc(Cl)cc(Nc2ccc3ncccc3c2)n1)c1cccc2ccccc12 (centres undefined) | Prostaglandin E synthase (Homo sapiens) (UniProt O14684) | 49.1% |
| O=C(O)C(Sc1nc(Cl)cc(Nc2ccc(F)cc2)n1)c1cccc2ccccc12 (centres undefined) | Prostaglandin E synthase (Homo sapiens) (UniProt O14684) | 49.9% |
| O=C(O)C(Sc1nc(Cl)cc(NCCc2ccccc2)n1)c1cccc2ccccc12 (centres undefined) | Prostaglandin E synthase (Homo sapiens) (UniProt O14684) | 42.3% |
| O=C(O)C(Sc1nc(Cl)cc(Nc2ccc3c(c2)CCC3)n1)c1cccc2ccccc12 (centres undefined) | Prostaglandin E synthase (Homo sapiens) (UniProt O14684) | 36.7% |
| CC(C)c1ccc(Nc2cc(Cl)nc(SC(C(=O)O)c3cccc4ccccc34)n2)cc1 (centres undefined) | Prostaglandin E synthase (Homo sapiens) (UniProt O14684) | 35.8% |
| O=C(O)C(Sc1nc(Cl)cc(Nc2cccc(Cl)c2)n1)c1cccc2ccccc12 (centres undefined) | Prostaglandin E synthase (Homo sapiens) (UniProt O14684) | 45.5% |
| O=C(Nc1ccc(Nc2cc(Cl)nc(SC(C(=O)O)c3cccc4ccccc34)n2)cc1)c1ccccc1 (centres undefined) | Prostaglandin E synthase (Homo sapiens) (UniProt O14684) | 38.8% |

Consider the additional compound presented here.
// compound CCCCNc1cc(Cl)nc(SC(C(=O)O)c2cccc3ccccc23)n1 (centres undefined) , assay Prostaglandin E synthase (Homo sapiens) (UniProt O14684), Activity value: 90.2%
